Test: viability loss with induced miR-34 in A549 – imaging, A549 dox-inducible miR-34, nuclei and caspase counts, primary screen (AID 1347080)
Settings: A549 miR-34 inducible, Hoechst nuclei count, 48 h; measured here: total cells without miR-34 induction
Category scheme (cell count): low: < 7000; mid: ≥ 7000 and < 9000; high: ≥ 9000

Which category does the recorded cell count put "COc1cccc(Cc2noc(-c3nccc4ccccc34)n2)c1" in?
mid

Now this one: COc1c(O)cc2c(c1O)C1OC(CO)C(O)C(O)C1OC2=O (centres undefined)
high

Now this one: "Cc1ncsc1-c1ccn(CC(=O)Nc2ccnn2C2CCCCC2)n1"
mid

Now this one: CC(C)C[C@H](NC(=O)C1OC1C(=O)O)C(=O)NCCCCN=C(N)N (some centres undefined)
high

Now this one: "COc1cccc2ncn(Cc3nc4ccccc4o3)c(=O)c12"
mid

Now this one: CN1C2CC(OC(=O)[C@H](CO)c3ccccc3)CC1C1OC12 (some centres undefined)
high

Now this one: "COc1ccc2cc1Oc1ccc(cc1)C[C@@H]1c3c(cc4c(c3Oc3cc5c(cc3OC)CCN(C)[C@@H]5C2)OCO4)CCN1C"
low

Now this one: O=c1[nH]cnc2c1ncn2C1OC(CO)C(O)C1O (centres undefined)
mid

Now this one: O=c1cnn(C2OC(CO)C(O)C2O)c(=O)[nH]1 (centres undefined)
low

Now this one: "CC(C)(C)c1cc(C(=O)C(C#N)=NNc2cccc(Cl)c2)no1"
low

Now this one: CC1CC=CC=CC=CC=CC(O[C@@H]2OC(C)C(O)C(N)C2O)C[C@@H]2O[C@](O)(CC(O)C[C@H]3OC3C=CC(=O)O1)CC(O)C2C(=O)O (some centres undefined)
mid

Now this one: Cc1nsc(NC(=O)N2CCCCC2c2nc(C(C)C)no2)n1 (centres undefined)
high

Now this one: CCOC(=O)O[C@@]1(C(=O)OCCl)CC[C@H]2[C@@H]3CCC4=CC(=O)C=C[C@]4(C)[C@@H]3C(O)C[C@@]21C (some centres undefined)
low

Now this one: "C[C@]1(C(=O)Nc2ccc(F)nc2)CCCN1c1nc(Nc2cc(C3CC3)[nH]n2)c2cccn2n1"
low

====

Test: growth inhibition, single agent and combos, cell-based, chromothripsis tumors, cisplatin or BGB combos (AID 1671450);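 also: cells exposed to compound for four days; 0% = vehicle DMSO and 100% = cell killing by high DMSO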
Conditions: HDN33 neuroblastoma cells, measured here: with BGB IC20 combination, at 0.5 µM, stronger effect = higher value
MEASURED PROPERTY: inhibition
Write your answer as a measured quantity: the number, then the unit.

State the recorded inhibition for this entry: "Cn1cnc2[nH]c(=O)[nH]c(=O)c21"
-37.1%

Now this one: "CN(C)C(=S)NN=C(c1ccccn1)c1ccccn1"
96.5%

Now this one: "O=C(O)c1cc2cccc([N+](=O)[O-])c2[nH]1"
-22.3%

Now this one: "C[n+]1ccc(-c2c3nc(c(-c4cc[n+](C)cc4)c4ccc([nH]4)c(-c4cc[n+](C)cc4)c4nc(c(-c5cc[n+](C)cc5)c5ccc2[nH]5)C=C4)C=C3)cc1"
-41%

Now this one: "C[C@@H]1COCCN1c1cc(C2(S(C)(=O)=O)CC2)nc(-c2cccc3[nH]ccc23)n1"
34.2%

====

Assay: chitosan synthesis blockers in C. neoformans – flow cytometry, Cibacron Brilliant Red staining (AID 1347148);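 also: compound exposure lasted three days at 37 degrees C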
Details: Cryptococcus neoformans chitosan, stronger effect = lower value; at 10 µM unless noted
Activity calls are given as the source filed them. The rule behind the calls is not given here.
Provide the reported fold fluorescence of each item.

State the recorded fold fluorescence for this entry: "N#Cc1c(-c2ccccc2)no[n+]1[O-]"
6.16 [at 267.2 µM] (inactive)

Now this one: "O=C(O)CNC(=O)[C@H](CS)Cc1ccccc1"
3.85 [at 197.4 µM] (inactive)

Now this one: "COc1c(O)c2c(=O)cc(OC)c3c4c(OC)cc(=O)c5c(O)c(OC)c(C[C@H](C)OC(=O)c6ccccc6)c(c(c1C[C@H](C)OC(=O)Oc1ccc(O)cc1)c23)c54"
6.48 [at 6.3 µM] (inactive)

Now this one: "CSCC[C@H](NC(=O)[C@H](Cc1ccccc1)NC[C@@H](NC[C@@H](N)CS)C(C)C)C(=O)O"
4.75 [at 106.2 µM] (inactive)

Now this one: CCOC(=O)C1OC1C(=O)NC(CC(C)C)C(=O)NCCC(C)C (stereo not drawn)
5.77 [at 146 µM] (inactive)

Now this one: "CC(C)C[C@@H](/C=C/S(C)(=O)=O)NC(=O)[C@H](CC(C)C)NC(=O)[C@H](CC(C)C)NC(=O)OCc1ccccc1"
3.84 [at 90.6 µM] (inactive)

Now this one: "O=C(O)CCC/C=C\C[C@H]1[C@H](/C=C/[C@H](O)COc2cccc(C(F)(F)F)c2)[C@@H](O)C[C@H]1O"
4.62 (inactive)

Now this one: "CCCCC[C@@H](O)/C=C/[C@H]1[C@H](CC(=O)CCCCC(=O)O)[C@H](O)C[C@@H]1O"
4.59 (inactive)

====

Assay: viability loss with induced miR-34 in A549 – imaging, A549 dox-inducible miR-34, nuclei and caspase counts, primary screen (AID 1347080)
Conditions: A549 miR-34 inducible, Hoechst nuclei count, 48 h; measured here: total cells with miR-34 induction; stronger effect = lower value
MEASURED PROPERTY: cell count
Give the figure by itself; no unit, no explanation.

State the recorded cell count for this entry: CC1(C)C(OC2OC(C(=O)O)C(O)C(O)C2OC2OC(C(=O)O)C(O)C(O)C2O)CC[C@@]2(C)[C@H]1CC[C@]1(C)[C@H]2C(=O)C=C2[C@H]3C[C@@](C)(C(=O)O)CC[C@]3(C)CC[C@]21C (stereo partly drawn)
8230

Now this one: "Clc1ccc2ncnc(NCc3ccc4c(c3)OCO4)c2c1"
3640

Now this one: "COc1cc(OC)c(/C=C2/C(=O)Nc3ccccc32)c(OC)c1"
2100

Now this one: C=CCC1C=C(C)CC(C)CC(OC)C2O[C@@](O)(C(=O)C(=O)N3CCCCC3C(=O)OC(C(C)=CC3CCC(O)C(OC)C3)C(C)C(O)CC1=O)C(C)CC2OC (stereo partly drawn)
5920

Now this one: CO[C@@]1(NC(=O)C2SC(=C(C(N)=O)C(=O)O)S2)C(=O)N2C(C(=O)O)=C(CSc3nnnn3C)CS[C@@H]21 (stereo partly drawn)
8700

Now this one: "O=C1NC(=O)C(=Cc2ccc(-c3ccc(F)cc3)o2)S1"
8240

Now this one: CNc1ncnc2c1ncn2[C@@H]1O[C@H](CO)[C@H](O)C1O (stereo partly drawn)
10300

Now this one: O=C1OC(C(O)CO)C(O)=C1O (stereo not drawn)
8100

====

Provide the reported inhibition of each item.
Test: growth inhibition, single agent or in combination, cell-based, chromothripsis tumors, cisplatin or BGB combos (AID 1671449);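 also: cells exposed for 96 hours; 0% = vehicle DMSO and 100% = killing by high DMSO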
Details: LFS_MB_P medulloblastoma cells, measured here: combination with cisplatin, at 5 µM, stronger effect = higher value
Answer format: numeric, % implied, no suffix.

State the recorded inhibition for this entry: "O=C1C(=Cc2cccnc2)C(=O)c2ccccc21"
-16.1

Now this one: "O=C(CCCCCCC(=O)NO)NO"
37.5

Now this one: "C[C@@H]1COCCN1c1cc(C2(S(C)(=O)=O)CC2)nc(-c2cccc3[nH]ccc23)n1"
49.8

Now this one: CC(C)(O)[C@H]1CC[C@@](C)(C2[C@@H](O)C[C@@]3(C)[C@@H]4C[C@H](O)C5C(C)(C)[C@@H](O)CCC56CC46CC[C@]23C)O1 (stereo not given in full)
-7.56

Now this one: O=c1ccn(C2CC(O)C(CO)O2)c(=O)[nH]1 (stereo not given)
-35.5

====

Test: galactose survival enhancers in mitochondrial complex I cybrids – cell-based, galactose medium, ATP luminescence, primary screen (AID 1645843);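 also: positive z means more ATP and so rescue of galactose-driven cybrid death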
Details: complex I mutant cybrid cells, 72 h, stronger effect = higher value
Lab note: anything with z-score at or over 0.2 counts as Satisfied; the rest go in Not satisfied.

Form field: z-score at least 0.2? Entry: Cc1ccc(CNC(=O)c2nn(C)c3c2CC(NC2CCN(Cc4ccccc4)CC2)CC3)o1 (centres undefined)
Not satisfied

Now this one: "COc1nc2c(cc1C(=O)N1CCOc3ccccc31)CCC2"
Satisfied

Now this one: Nc1nc(Cl)nc2c1ncn2C1OC(CO)C(O)C1O (centres undefined)
Not satisfied

Now this one: "CCOC(=O)c1nn(Cc2ccc(OC)cc2)c2c1CN(C(=O)CSc1ncccn1)CC2"
Satisfied

Now this one: "O=C1/C(=C/c2ccsc2)CC/C1=C\c1cccs1"
Satisfied

Now this one: "CC(C)CNc1cc(C(=O)NC2Cc3ccccc3C2)cc(S(=O)(=O)NC(C)C)c1"
Not satisfied

Now this one: "COc1cccc2c1[C@@H]1CN(CCCCn3c(=O)[nH]c4c(sc5ncc(-c6ccccc6)nc54)c3=O)C[C@@H]1CO2"
Not satisfied

Now this one: Cc1cc(-c2cc3c(n(Cc4cccnc4)c2=O)CCN(C(=O)C2Cc4ccccc4O2)C3)ccc1F (centres undefined)
Not satisfied

Now this one: "Fc1cccc(F)c1-c1nc2c(cnn2Cc2cccs2)[nH]1"
Not satisfied

Now this one: "OB(O)c1cc2ccccc2s1"
Satisfied

Now this one: "NC(=O)c1c(NC(=O)C2CC2)sc2c1CCCC2"
Satisfied

Now this one: "N=C(N)c1ccccc1"
Satisfied

Now this one: "CNCC[C@H](Oc1ccc(C(F)(F)F)cc1)c1ccccc1"
Not satisfied

Now this one: "Cc1nn(C)cc1-c1ccnc(NCc2nc(-c3ccccc3)no2)n1"
Not satisfied

Now this one: "Cc1ccc2c(C(=O)N3C[C@H]4CC[C@H]3C4)cc(-c3cnn(C(C)(C)C)c3)nc2c1"
Satisfied

Now this one: "O=C(O)C(C(=O)O)c1ccccc1"
Satisfied

Now this one: "C[C@H](C(=O)O)c1cccc(C(=O)c2ccccc2)c1"
Satisfied

Now this one: "CCCCCC(=O)N1CCC(n2cc(C3CCCC3)nn2)CC1"
Satisfied

Now this one: "O=C(NCC(c1ccccc1)c1ccccc1)Nc1nncs1"
Satisfied

Now this one: "Cc1cc(CC(=O)Nc2cc(C)nn2C2CCCCC2)on1"
Satisfied

Now this one: CC1CCC2C(C)C(OC(=O)CCC(=O)O)OC3O[C@@]4(C)CCC1[C@]32OO4 (some centres undefined)
Not satisfied

Now this one: CC(=O)[C@@]1(O)CCC2C3CC(C)C4=CC(=O)CC[C@]4(C)C3CC[C@@]21C (some centres undefined)
Not satisfied

Now this one: "NC(N)=N[C@@H](CCC(=O)O)C(=O)O"
Not satisfied

Now this one: CCC1OC(=O)C(C)C(=O)C(C)C(OC2OC(C)CC(N(C)C)C2O)[C@](C)(OC)CC(C)C(=O)C(C)C2N(CCCCn3cnc(-c4cccnc4)c3)C(=O)O[C@]12C (some centres undefined)
Not satisfied

Now this one: "CCn1cc(CNC(=O)Nc2nnc(C(C)(C)C)s2)cn1"
Not satisfied

Now this one: Cc1ccc(NC(=O)C2CC23CCCCC3)cn1 (centres undefined)
Not satisfied

Now this one: "COc1ccccc1N1CCN(C(=O)CCC(C)C)CC1(C)C"
Satisfied

Now this one: "Cc1cccc2c(C(=O)N3CCC(C)(C)C3)cc(-c3cnc(C4CC4)nc3)nc12"
Satisfied

Now this one: "O=C(Oc1ccccc1)N1CCN2C(=O)[C@@H]3C[C@@H](O)CN3C(=O)[C@H]2C1"
Not satisfied

Now this one: "CCOC(=O)c1nn(CCc2ccccc2)c2c1CN(C(=O)CCc1nc3ccccc3s1)CC2"
Satisfied

Now this one: CCCC(C)CN(CC)C1CCS(=O)(=O)C1 (centres undefined)
Not satisfied

Now this one: "O=C1CCCc2occ(C(=O)N3CCc4[nH]nc(C5CCC5)c4C3)c21"
Not satisfied

Now this one: CCN1CCCC1CNC(=O)c1c(O)c(Cl)cc(Cl)c1OC (centres undefined)
Satisfied

Now this one: "CCOC(=O)c1c(C)n[nH]c1C"
Satisfied

Now this one: "O=C(CC1=CCCCC1)N1CCc2c(cc(-c3cccc(F)c3)c(=O)n2CCN2CCCCC2)C1"
Satisfied

Now this one: CCN1C(=O)N(Cc2cccc(OC)c2)C(=O)C12CCN(CC1CC=CCC1)CC2 (centres undefined)
Not satisfied

Now this one: O=C(O)CCC(=O)N1CCCC1C(=O)O (centres undefined)
Satisfied

Now this one: "CCN(CC)CCNC(=O)c1ccc(NS(C)(=O)=O)cc1"
Satisfied

Now this one: "N[C@H](C(=O)O)[C@H](O)C(=O)O"
Not satisfied

Now this one: O=C1NCCN(C(=O)c2cccc(-c3ccccc3)c2)C1Cc1ccccc1 (centres undefined)
Satisfied

Now this one: "Cc1nn(C)cc1CNc1cc(C(=O)NCc2cn3ccccc3n2)cc(S(=O)(=O)NC(C)C)c1"
Not satisfied

Now this one: "COc1ccc(C(=O)N2CCN3C(=O)[C@H](COCc4ccccc4)NC(=O)[C@H]3C2)cc1"
Not satisfied

Now this one: "c1ccc(-c2noc(-c3cccc4cccnc34)n2)nc1"
Satisfied
